Listing: glycan array binding signal (z-score) of selected binders
- tgt: GalNAc(a1-3)GalNAc(b1-3)Gal(a1-4)Gal(b1-4)Glc
- experimental.details: glycan array binding signal (z-score within array); higher = stronger binding
- test.parameters: glycan notation: IUPAC condensed, linker removed
About 410 targets per protein were measured; listed, in parts, are those with the strongest signals and a random draw of the rest.
Please state the value as a number alone, without comment.

Task item: Fill blank: measured glycan array binding signal (z-score) of the binder AT3G44510(29) (Arabidopsis thaliana), F4J341 (protein) MEEHLQGRIKLHDGRYLAYKERGVPKDDAKFTIVLVHGFGSSKDMNFNVSQELVNEIGIYFVLYDRAGYGESDPNPKRSLKSEAYDVQELADGLEIGSRFYLIGISMGSYTVWSCLKHIPQRLAGVAMVAPVVNFRWPSIPKSLMPKDYRREVAKWSVWIANYFPGLLQWLVTQNMFSTTSMLEKNPVYFNDQDIEVLKHIKGFPMLTKEKLRERGVFGTLRSDFLVAFGDWDFDPADLPDPSLSGPEKGSSSVHIWQGYEDKVMPFQLQRCLCRKLPWIRYHEVPKGGHLIVHYDGICDAILKSLLLGEDLPMYKPKAVITEPA is ____.
Reply: -0.476

Task item: Fill blank: measured glycan array binding signal (z-score) of the binder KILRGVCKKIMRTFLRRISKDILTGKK [NK2 (Sus scrofa)] is ____.
Reply: -0.58

Task item: Fill blank: measured glycan array binding signal (z-score) of the binder Gal 8 (Homo sapiens) (protein) MLSLNNLQNIIYNPVIPYVGTIPDQLDPGTLIVICGHVPSDADRFQVDLQNGSSVKPRADVAFHFNPRFKRAGCIVCNTLINEKWGREEITYDTPFKREKSFEIVIMVLKDKFQVAVNGKHTLLYGHRIGPEKIDTLGIYGKVNIHSIGFSFSSDLQSTQASSLELTEISRENVPKSGTPQLQTVSPSWDLQGHGSETFCSVLWTRVFLEIAFCRPIGLTVASFQSLPFAARLNTPMGPGRTVVVKGEVNANAKSFNVDLLAGKSKDIALHLNPRLNIKAFVRNSFLQESWGEEERNITSFPFSPGMYFEMIIYCDVREFKVAVNGVHSLEYKHRFKELSSIDTLEINGDIHLLEVRSW is ____.
Reply: 0.169

Task item: Fill blank: measured glycan array binding signal (z-score) of the binder DBA (Dolichos biflorus) (protein) ANIQSFSFKNFNSPSFILQGDATVSSGKLQLTKVKENGFPLRFPSGRAFYSSPIQIYDKFTGAVASWATSFTVKISAPSKASFADGIAFALVPVGSEPRRNGGYLGVFDSDVYNNSAQTVAVEFDTLSNSGWDPSMKHIGIDVNSIKSIATVSWDLANGENAEILITYNAATSLLVVSLVHPSRRTSYILSERVDITNELPEYVGVGFSATTGLSEGYIETHDVLSWSFASRLPDDSTAEPLDLARYLVRNVL is ____.
Reply: 13.4

Task item: Fill blank: measured glycan array binding signal (z-score) of the binder EUL D1A first (Oryza sativa) (protein) MFGFGHHHNQAPAAPSDPNQIFKIFCRANENYCLTVRDSAVVLAPVNPKDEHQHWFKDMRFSTKVKDGEGMPAFALVNKATGLAVKHSLGQSHPVKLVPFNPEYEDASVLWTESKDVGKGFRCIRMVNNTRLNLDAFHGDKDHGGVRDGTTVVLWEWCKGDNQSWKILPWGPEAHSSSPGAATILEQKLISEEDLNSAVDHHHHHH is ____.
Reply: -0.059

Task item: Fill blank: measured glycan array binding signal (z-score) of the binder HPA (Helix pomatia), Q2F1K8 (protein) MQAFYSGLLLLCVVAFAAAQRVQSGKIDCGNDAGWAKVPSDDPGRDNTRELAKNITFASPYCRPPVVLLSITQLDVEQSQNLRVIARLYSVSPTGFKASCYTWHNTKVYSMSISWISIENY is ____.
Reply: 7.34
